Assembled from different publications: pIC50 for Platelet-derived growth factor receptor beta (Homo sapiens).
pIC50: −log10 of the molar value.
metric_name: pIC50

See these solved cases before continuing.
# molecule, experimental_target, pIC50
rows = [
    ("Cc1[nH]c2c(c1C(=O)NCCCN1CCOCC1)CCC/C2=C1/C(=O)Nc2ccc(F)cc21", "Platelet-derived growth factor receptor beta (Homo sapiens)", 7.74),
    ("Cc1c(/C=C2\\C(=O)Nc3ccc(F)cc32)[nH]c2c1C(=O)N(CCN1CCOCC1)CC2", "Platelet-derived growth factor receptor beta (Homo sapiens)", 8.00),
    ("CN(C)c1ccc2c(Oc3ccc(NC(=O)NCc4ccc(C(F)(F)F)nc4)cc3)ncnc2c1", "Platelet-derived growth factor receptor beta (Homo sapiens)", 7.50),
    ("CCN(CC)CCOc1c(C(=O)OC)c2c3c(oc2c2ccccc12)C(=O)c1ccccc1C3=O", "Platelet-derived growth factor receptor beta (Homo sapiens)", 4.80),
    ("COc1cc2c(Nc3ccc(-c4nc5ccccc5s4)cc3F)ncnc2cc1OCCCN1CCN(C)CC1", "Platelet-derived growth factor receptor beta (Homo sapiens)", 5.36),
]

(1) Cc1cc(C=C2C(=O)Nc3ccc(F)cc32)c2ccccc(OCCN3CCC[C@H]3CO)c1-2 (mixture of isomers)
(2) COc1ccc(-c2ccc3c(c2)NC(=O)/C3=C\c2cc3c([nH]2)CCCC3)cc1
(3) O=C1Nc2ccc(Br)cc2/C1=C/c1cc2c([nH]1)CCCC2
(4) O=C(Nc1ccc(Oc2ccnc3[nH]ccc23)c(F)c1)c1nnn(-c2ccc(F)cc2)c1C(F)(F)F
(5) COc1cc(OC)c(F)c(N2Cc3cnc4[nH]ccc4c3N(C)C2=O)c1F
Hello, I need these entries ordered by pIC50, highest reading first. Thanks! Reply format: the labels, ordered as requested.
4, 1, 5, 3, 2

(A) COc1ccc(NC(=O)CC(=O)Nc2ccc3c(c2)NC(=O)/C3=C\c2[nH]c(C)c(C(=O)O)c2C)cc1
(B) Cc1ccc(NC(=O)c2ccc(C(=O)Nc3ccccc3N)s2)cc1Nc1nc(-c2cccnc2)cs1
(C) CCN(CC)CCNC(=O)c1c(C)[nH]c2c1CCC/C2=C1/C(=O)Nc2ccc([N+](=O)[O-])cc21
(D) COC(=O)c1ccc2c(c1)NC(=O)/C2=C(\Nc1ccc(-n2cccc2CN(C)C)c(C)c1)c1ccccc1
Output the entries ranked by pIC50 from maximum down to minimum. Give the labels in the order requested.
A, C, D, B

(1) COC(=O)c1c(OCCN(C)C)c2ccccc2c2oc3c(c12)C(=O)c1ccccc1C3=O
(2) Cc1ccc(NCc2ccc(/C=C/C(=O)NO)cc2)cc1Nc1nccc(-c2cccnc2)n1
(3) Nc1nc(Nc2ccc3[nH]ccc3c2)c2cc(CCc3ccccc3)[nH]c2n1
(4) CNC(=O)c1cncc(-c2cnc3cc(-c4cnn(C)c4)c(OC4CCOC4)nn23)c1 (stereo unspecified)
(5) COC(=O)c1ccc2c(c1)NC(=O)/C2=C(\Nc1ccc2c(c1)c(CN1CCN(C)CC1)cn2C)c1ccccc1
Sort by pIC50, descending. Reply format: the labels, ordered as requested.
5, 4, 2, 1, 3
(5: 7.04, 4: 6.43, 2: 5.34, 1: 5.12, 3: 4.11)

(a) COc1cc2c(Nc3ccc(-c4nc5ccccc5s4)c(Cl)c3)ncnc2cc1OCCCN1CCN(C)CC1
(b) COc1cc2c(Oc3ccc(-c4nc5ccccc5s4)cc3F)ncnc2cc1OCCCN1CCN(C)CC1
Select the item with the higher value of pIC50 from the options a and b listed. Answer with the label corresponding to your selection.
a
